Here, each record is paired with measured TL1A Binding Level (Late) data.
- assay.target: T1, human TL1A extracellular domain with N-terminal HIS and FLAG tag (human, UniProt O95150 72-251)
- T1 construct: the whole entry is named; also called TNFSF15
- T1 sequence: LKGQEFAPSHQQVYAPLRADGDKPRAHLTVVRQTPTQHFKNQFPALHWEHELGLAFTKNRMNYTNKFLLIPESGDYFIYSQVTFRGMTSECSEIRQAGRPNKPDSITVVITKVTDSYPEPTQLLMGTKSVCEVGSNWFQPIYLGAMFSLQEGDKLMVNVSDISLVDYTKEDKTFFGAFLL
- experimental.protocol: SPR Run 7, antibody on Protein A, TL1A 5 ug/mL, timepoint 220
- Experimental: 1.5. Antibody expression and antigen binding as determined by SPR. Using a CM5 sensor chip (GE Healthcare) Protein A (Pierce) was coupled to the chip surface using an amine coupling kit (GE Healthcare). Protein A was coupled on flow cell 1 and 2 (or alternatively 3 and 4) using a BIACORE® T200. […] At the end of injection of the supernatant or purified antibody the change in response units was measured. […] The response units were measured prior to the end of the dissociation phase. […]
API: value field is a number in RU; no unit string.

Please give the documented TL1A Binding Level (Late) of 320-553 (antibody, human IgG1, name in Kabat numbering, V domains shown, full-length human IgG1, lambda) VH: QVQLVQSGAEVKKPGASVKVSCKASGYTFTSYDINWVRQAPGQGLEWMGWLNPNSGNKGYAQKFQGRVTMTADRSTSTAYMELSSLRSEDTAVYYCAREVPETAAFEYWGQGTLVTVSS VL: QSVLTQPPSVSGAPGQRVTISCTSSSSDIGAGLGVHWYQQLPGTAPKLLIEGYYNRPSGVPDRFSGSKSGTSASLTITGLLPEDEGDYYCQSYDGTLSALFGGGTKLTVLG
78

Please give the documented TL1A Binding Level (Late) of 320-541 (antibody, human IgG1, name in Kabat numbering, V domains shown, full-length human IgG1, lambda) VH: QVQLVQSGAEVKKPGASVKVSCKASGYTFTSYDINWVRQAPGQGLEWMGWLNPNSGQTGYAQKFQGRVTMTADRSTSTAYMELSSLRSEDTAVYYCAREVPETAAFEYWGQGTLVTVSS VL: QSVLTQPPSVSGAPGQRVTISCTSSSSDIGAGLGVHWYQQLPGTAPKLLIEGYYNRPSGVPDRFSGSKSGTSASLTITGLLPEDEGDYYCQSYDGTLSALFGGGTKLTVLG
84

Please give the documented TL1A Binding Level (Late) of 320-517 (antibody, human IgG1, name in Kabat numbering, V domains shown, full-length human IgG1, lambda) VH: QVQLVQSGAEVKKPGASVKVSCKASGYTFTSYDINWVRQAPGQGLEWMGWLNPDSGNTGYAQKFQGRVTMTADRSTSTAYMELSSLRSEDTAVYYCAREVPETAAFEYWGQGTLVTVSS VL: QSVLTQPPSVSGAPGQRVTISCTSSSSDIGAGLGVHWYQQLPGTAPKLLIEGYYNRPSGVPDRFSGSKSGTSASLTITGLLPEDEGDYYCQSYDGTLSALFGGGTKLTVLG
50

Please give the documented TL1A Binding Level (Late) of 320-547 (antibody, human IgG1, name in Kabat numbering, V domains shown, full-length human IgG1, lambda) VH: QVQLVQSGAEVKKPGASVKVSCKASGYTFTSYDINWVRQAPGQGLEWMGWLNPNSGYTGYAQKFQGRVTMTADRSTSTAYMELSSLRSEDTAVYYCAREVPETAAFEYWGQGTLVTVSS VL: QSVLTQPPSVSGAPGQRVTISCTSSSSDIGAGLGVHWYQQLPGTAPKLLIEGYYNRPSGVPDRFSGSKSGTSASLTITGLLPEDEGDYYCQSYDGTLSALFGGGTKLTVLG
75

Okay, now this binder:
Please give the documented TL1A Binding Level (Late) of 320-527 (antibody, human IgG1, name in Kabat numbering, V domains shown, full-length human IgG1, lambda) VH: QVQLVQSGAEVKKPGASVKVSCKASGYTFTSYDINWVRQAPGQGLEWMGWLNPNKGNTGYAQKFQGRVTMTADRSTSTAYMELSSLRSEDTAVYYCAREVPETAAFEYWGQGTLVTVSS VL: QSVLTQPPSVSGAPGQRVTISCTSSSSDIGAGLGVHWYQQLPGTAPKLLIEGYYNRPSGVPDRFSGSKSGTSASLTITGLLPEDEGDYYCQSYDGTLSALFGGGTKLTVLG
136

The measured values listed here are drawn from patent US20170081400A1.
